Item-by-item account of IC50
- EXPERIMENTAL_SYSTEM: G-protein coupled receptor 35 (Homo sapiens, UniProt Q9HC97)
- Sequence (Q9HC97 whole entry): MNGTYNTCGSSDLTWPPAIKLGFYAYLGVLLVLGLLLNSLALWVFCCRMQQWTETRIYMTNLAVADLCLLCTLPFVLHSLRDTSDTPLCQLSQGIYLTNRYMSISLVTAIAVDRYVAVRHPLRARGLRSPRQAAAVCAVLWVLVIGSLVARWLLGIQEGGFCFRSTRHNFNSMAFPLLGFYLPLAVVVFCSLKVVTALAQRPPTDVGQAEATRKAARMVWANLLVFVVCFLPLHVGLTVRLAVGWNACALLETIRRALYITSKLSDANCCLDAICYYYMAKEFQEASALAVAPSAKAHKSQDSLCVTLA
- TEST_DESCRIPTION: Agonist activity at human GPR35 receptor expressed in HT-29 cells assessed as desensitization of zaprinast-induced DMR response preincubated for 1 hr followed by zaprinast stimulation by DMR desensitization assay
- Type: functional, cell-based
Give a bare numeral; the unit µM is implied.

• COc1cc(C(=O)O)nc2c(C)c3nc(C(=O)O)cc(OC)c3cc12 = 0.065
• O=C(O)c1cc2cc(-c3cccs3)c(O)cc2oc1=O = 1.45
• COc1cccc(-c2cc3cc(C(=O)O)c(=O)oc3cc2O)c1 = 1.38
• O=C(O)c1cc(C(=O)O)c2c(n1)C(=O)C(=O)c1cc(C(=O)O)[nH]c1-2 = 0.03
• Cc1c2[nH]c(C(=O)O)cc(=O)c2cc2c(=O)cc(C(=O)O)[nH]c12 = 0.002

From here, focus on the item given below.
Incoming: Specify measured IC50 for "COc1ccc(-c2cc3cc(C(=O)O)c(=O)oc3c3cc(C(=O)O)c(=O)oc23)cc1" .
Outgoing: 0.007
